# ASSAY_TARGET: apoaequorin (Aequorea victoria, UniProt P07164)
# Construct: purchased Chisso Corporation
# Sequence (P07164 other isoform, or with tags, fused parts or gaps with the stated changes): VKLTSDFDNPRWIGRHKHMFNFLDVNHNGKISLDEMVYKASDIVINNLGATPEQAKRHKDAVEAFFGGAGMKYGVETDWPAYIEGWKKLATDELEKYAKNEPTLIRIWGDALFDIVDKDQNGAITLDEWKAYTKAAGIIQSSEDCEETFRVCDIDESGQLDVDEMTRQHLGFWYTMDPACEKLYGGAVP
# EXPERIMENT: Fluorescence spectra of semi-synthetic BFP (coelenteramide analogue + apoaequorin, CaCl2)
# Format: physicochemical
# CONDITION_SET: 10 mM CaCl2 buffer, excitation 337 nm
# Method: Semi-synthetic gFP was prepared from recombinant apoaequorin and coelenteramide analogues as follows. […] The fluorescence spectra were determined as follows. […] The fluorescence spectra were measured at 25° C. in a quartz cell (10 mm light path length) using a Jasco FP-6500 spectrofluorometer (excitation wavelength: 337 nm, emission/excitation bandwidth: 3 nm; response: 0.5 sec, scan speed, 1000 nm/min).
MEASURED_PROPERTY: Semi-synthetic BFP (Buffer containing CaCl2) Maximum fluorescence wavelength λmax (nm)

SMILES_TEXT	UNIT_ABBREV	ENDPOINT_VALUE
O=C(Cc1ccc(O)cc1)Nc1ncc(-c2ccc(O)cc2)nc1-c1ccc(O)cc1	nm	489.0
O=C(Cc1ccc(O)cc1)Nc1ncc(-c2ccc(O)cc2)nc1-c1ccc2ccccc2c1	nm	492.5
CN(C)c1ccc(-c2nc(-c3ccc(O)cc3)cnc2NC(=O)Cc2ccc(O)cc2)cc1	nm	487.5
O=C(Cc1ccc(O)cc1)Nc1ncc(-c2ccc(O)cc2)nc1-c1cccc2ccccc12	nm	487.0
O=C(Nc1ncc(-c2ccc(O)cc2)nc1Cc1ccccc1)c1ccc(O)cc1	nm	485.0
O=C(Cc1ccc(O)cc1)Nc1ncc(-c2ccc(O)cc2)nc1-c1ccccc1	nm	507.5
C=C(c1ccccc1)c1nc(-c2ccc(O)cc2)cnc1NC(=O)Cc1ccc(O)cc1	nm	492.5

Value source: patent US9056840B2
